This listing pairs compounds with measured pIC50.
target: KAT-8 (Homo sapiens (Human)); test: KAT-8 biochemical inhibition assay (SAMDI mass spectrometry)
Sequence (Q9H7Z6 other isoform, or with tags, fused parts or gaps): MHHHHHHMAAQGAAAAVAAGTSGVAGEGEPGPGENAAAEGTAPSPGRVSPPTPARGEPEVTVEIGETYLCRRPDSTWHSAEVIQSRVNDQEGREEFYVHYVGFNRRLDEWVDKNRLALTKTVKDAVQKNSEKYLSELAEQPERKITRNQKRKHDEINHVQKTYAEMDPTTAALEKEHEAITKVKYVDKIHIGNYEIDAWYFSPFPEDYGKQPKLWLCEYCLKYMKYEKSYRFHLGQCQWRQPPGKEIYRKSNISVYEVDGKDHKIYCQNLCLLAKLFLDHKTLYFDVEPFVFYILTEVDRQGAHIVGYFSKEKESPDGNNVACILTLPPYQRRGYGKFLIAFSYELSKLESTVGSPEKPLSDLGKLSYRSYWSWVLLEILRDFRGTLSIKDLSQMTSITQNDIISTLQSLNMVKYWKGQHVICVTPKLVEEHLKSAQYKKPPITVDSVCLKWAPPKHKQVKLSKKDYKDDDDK
pIC50: −log10 of the molar value.

Cn1cnc(-c2cc(Cl)c(F)c(C(=O)NNS(=O)(=O)c3cccc(N)n3)c2)c1 [Compound I-392] = < 4.00
Cn1cc(-c2cc(Cl)c(F)c(C(=O)NNS(=O)(=O)C3CCOCC3)c2)nc1Cl [Compound I-8] = < 4.00
Cn1cnc(-c2cc(Cl)c(F)c(C(=O)NNS(=O)(=O)CC3CCC(N)C3)c2)c1 (stereo not drawn) [Compound I-339] = 4.30 to 5.00
CNc1ccc(S(=O)(=O)NNC(=O)c2cc(-c3cn(C)cn3)cc(Cl)c2F)cc1 [Compound I-382] = < 4.00
Cn1cnc(-c2cc(Cl)c(F)c(C(=O)NNS(=O)(=O)c3cccnc3)c2)c1 [Compound I-301] = 4.30 to 5.00

The record that follows has no pIC50 shown yet.
Consider the compound shown here: Cc1cc(-c2cn(C(C)C)cn2)cc(C(=O)NNS(=O)(=O)C2CCCCC2)c1F [Compound I-139] What is its recorded pIC50?
< 4.00

Reference source: patent US11685732B2
